Every entry's value here was drawn from PubChem BioAssay (EPA / NIEHS).

biological target: Bile acid receptor (Homo sapiens) (UniProt Q96RI1); assay: ATG_IR1_CIS: Attagene CIS-FACTORIAL HepG2 Assay for human Nuclear Receptor Subfamily 1 Group H Member 4 (NR1H4), IR1 submotif (AID 2282946); settings: IR1 reporter transcription, actives raise or lower the signal
Sequence (Q96RI1 whole entry, looked up): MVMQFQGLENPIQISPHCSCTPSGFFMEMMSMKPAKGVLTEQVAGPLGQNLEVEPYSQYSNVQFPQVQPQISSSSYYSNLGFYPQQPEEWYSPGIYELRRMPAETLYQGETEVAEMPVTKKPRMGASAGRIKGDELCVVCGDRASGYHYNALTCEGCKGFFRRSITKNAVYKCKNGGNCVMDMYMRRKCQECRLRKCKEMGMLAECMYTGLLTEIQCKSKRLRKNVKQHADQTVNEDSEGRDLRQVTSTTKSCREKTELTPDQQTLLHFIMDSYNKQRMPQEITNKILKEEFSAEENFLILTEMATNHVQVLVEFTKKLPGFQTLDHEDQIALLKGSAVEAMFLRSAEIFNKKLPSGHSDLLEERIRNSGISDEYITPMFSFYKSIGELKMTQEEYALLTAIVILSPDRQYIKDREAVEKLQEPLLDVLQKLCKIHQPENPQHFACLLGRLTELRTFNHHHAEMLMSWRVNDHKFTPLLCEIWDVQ
Activity calls are given as the source filed them. How the source made its calls: active means hit-call score of the fitted dose curve at least 0.9, where 1 is the maximum; inactive means score below 0.9.
Please answer using one outcome listed in t = active, f = inactive

Below are worked cases with known answers.
COMPOUND: CC(C)(CO)C(O)C(=O)NCCCO (centres undefined)
ASSAYED SYSTEM: Bile acid receptor (Homo sapiens) (UniProt Q96RI1)
CLASS ASSIGNMENT: f
--
COMPOUND: C=C[Si](OCCOC)(OCCOC)OCCOC
ASSAYED SYSTEM: Bile acid receptor (Homo sapiens) (UniProt Q96RI1)
CLASS ASSIGNMENT: f
--
COMPOUND: CCCCC(CC)COS(=O)(=O)O (centres undefined)
ASSAYED SYSTEM: Bile acid receptor (Homo sapiens) (UniProt Q96RI1)
CLASS ASSIGNMENT: f
--
COMPOUND: COc1ccc(C(=O)c2ccccc2)c(O)c1
ASSAYED SYSTEM: Bile acid receptor (Homo sapiens) (UniProt Q96RI1)
CLASS ASSIGNMENT: t
--
COMPOUND: C=CC(=O)OCCCCCCOC(=O)C=C
ASSAYED SYSTEM: Bile acid receptor (Homo sapiens) (UniProt Q96RI1)
CLASS ASSIGNMENT: t

input: Could you check what this test reported for CC1OC(=O)C(C)OC1=O (centres undefined) ?
output: f

input: Each compound tested received a call. Report the one for CCOc1ccc(NC(N)=O)cc1 .
output: f

input: // param item: Clc1cccnc1 ; yields the recorded call
output: f
